target: human melanocortin receptor subtype 4 (hMC4-R) (human), P32245; test: [125I]-NDP-α-MSH competition, membranes
Sequence (P32245 whole entry): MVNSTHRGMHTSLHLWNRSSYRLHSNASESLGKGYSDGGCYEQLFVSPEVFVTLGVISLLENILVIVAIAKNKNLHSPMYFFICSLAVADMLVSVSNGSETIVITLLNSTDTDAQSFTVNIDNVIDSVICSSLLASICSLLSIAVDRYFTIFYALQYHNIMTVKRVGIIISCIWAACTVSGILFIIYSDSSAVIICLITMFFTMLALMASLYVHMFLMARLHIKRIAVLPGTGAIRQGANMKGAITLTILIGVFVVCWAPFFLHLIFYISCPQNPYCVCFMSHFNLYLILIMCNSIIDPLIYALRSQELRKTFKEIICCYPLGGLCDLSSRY
Bridge positions count the residues as written; N and C are the ends. Square brackets hold non-standard residues; d marks the D form. 1Nal = N[C@@H](Cc1cccc2ccccc12)C(=O)O; d2Nal = N[C@H](Cc1ccc2ccccc2c1)C(=O)O
Measured Endpoint: Ki (nM)

Binder	Measured Endpoint	Numeric Readout
Ac-CEH[d2Nal]R[1Nal]ACPPKD-NH2 (disulfide 1-8; SMILES CC(=O)N[C@H]1CSSC[C@@H](C(=O)N2CCC[C@H]2C(=O)N2CCC[C@H]2C(=O)N[C@@H](CCCCN)C(=O)N[C@@H](CC(=O)O)C(N)=O)NC(=O)[C@H](C)NC(=O)[C@H](Cc2cccc3ccccc23)NC(=O)[C@H](CCCNC(=N)N)NC(=O)[C@@H](Cc2ccc3ccccc3c2)NC(=O)[C@H](Cc2c[nH]cn2)NC(=O)[C@H](CCC(=O)O)NC1=O) [Ac-c(Cys-Glu-His-D-2-Nal-Arg-1-Nal-Ala-Cys)-Pro-Pro-Lys-Asp-NH2]	Ki	1.11

Source of measurements: patent US20120135923A1
